- assay text: Vero cell proliferation inhibition test (XTT assay)
- Assay type: cell-based
- measurement parameters: African green monkey, Vero cells, concentration inhibiting cell proliferation by 50%
Where a name gives a salt, the structure may show the parent alone.
endpoint label: CC50 at 3 days (µg/mL)
Express your answer in µg/mL, writing the number without its unit.

Quick check: CC50 at 3 days of N=C(N)c1ccc(OCCCC2CCN(CCCOc3ccc(C(=N)N)cc3)CC2)cc1 [Example 4, hydrochloride] ? 25
